From: patent US12673915B2

Assay: Thermal stability testing at 60° C. of ingredient and 1% premix (HPLC)
Format: physicochemical
Settings: 1% Premix of an ingredient (corncob meal), Day 10
metric_name: Residual amount of active ingredient (%)

CC(=O)OC1=C(CCC(C)C)C(=O)C(CCC(C)C)(CCC(C)C)C(O)=C1C(=O)C(C)C [hexahydro-colupulone mono-acetate, Hexahydro-Colupulone Mono-Acetate] : 98.68
CCCC(=O)OC1=C(CCC(C)C)C(=O)C(CCC(C)C)(CCC(C)C)C(O)=C1C(=O)C(C)C [hexahydro-colupulone mono-butyrate] : 97.57
CCC(=O)OC1=C(CCC(C)C)C(=O)C(CCC(C)C)(CCC(C)C)C(O)=C1C(=O)C(C)C [hexahydro-colupulone mono-propionate] : 97.91
CC(C)CCC1=C(O)C(C(=O)C(C)C)=C(O)C(CCC(C)C)(CCC(C)C)C1=O [hexahydro-colupulone, reference compound] : 93.56

* * *

Experiment: Long-term stability in feeds at room temperature (25° C.±2° C., RH 60%±10%; HPLC)
Format: physicochemical
Conditions: 100 ppm in INSIGHTER's broiler feed; Day 15
metric_name: Residual amount of active ingredient (%)

CCC(=O)OC1=C(CCC(C)C)C(=O)C(CCC(C)C)(CCC(C)C)C(O)=C1C(=O)C(C)C [hexahydro-colupulone mono-propionate] : 99.37
CC(=O)OC1=C(CCC(C)C)C(=O)C(CCC(C)C)(CCC(C)C)C(O)=C1C(=O)C(C)C [hexahydro-colupulone mono-acetate, Hexahydro-Colupulone Mono-Acetate] : 81.77
CCCC(=O)OC1=C(CCC(C)C)C(=O)C(CCC(C)C)(CCC(C)C)C(O)=C1C(=O)C(C)C [hexahydro-colupulone mono-butyrate] : 98.79
CCCCCCCCCCCC(=O)OC1=C(CCC(C)C)C(=O)C(CCC(C)C)(CCC(C)C)C(O)=C1C(=O)C(C)C [hexahydro-colupulone mono-laurate] : 99.65

* * *

Test: Photostability testing under illumination of 4500 Lx of ingredient and 1% premix (HPLC)
Type: physicochemical
Conditions: 4500 Lx; Ingredient; Day 5
metric_name: Residual amount of active ingredient (%)

CC(=O)OC1=C(CCC(C)C)C(=O)C(CCC(C)C)(CCC(C)C)C(O)=C1C(=O)C(C)C [hexahydro-colupulone mono-acetate, Hexahydro-Colupulone Mono-Acetate] : 98.97
CCC(=O)OC1=C(CCC(C)C)C(=O)C(CCC(C)C)(CCC(C)C)C(O)=C1C(=O)C(C)C [hexahydro-colupulone mono-propionate] : 98.90
CC(C)CCC1=C(O)C(C(=O)C(C)C)=C(O)C(CCC(C)C)(CCC(C)C)C1=O [hexahydro-colupulone, reference compound] : 92.71
CCCC(=O)OC1=C(CCC(C)C)C(=O)C(CCC(C)C)(CCC(C)C)C(O)=C1C(=O)C(C)C [hexahydro-colupulone mono-butyrate] : 99.99

* * *

Experiment: Photostability testing under illumination of 4500 Lx of ingredient and 1% premix (HPLC)
Type: physicochemical
Details: 4500 Lx; 1% Premix of an ingredient (corncob meal); Day 5
metric_name: Residual amount of active ingredient (%)

CCCC(=O)OC1=C(CCC(C)C)C(=O)C(CCC(C)C)(CCC(C)C)C(O)=C1C(=O)C(C)C [hexahydro-colupulone mono-butyrate] : 99.14
CC(=O)OC1=C(CCC(C)C)C(=O)C(CCC(C)C)(CCC(C)C)C(O)=C1C(=O)C(C)C [hexahydro-colupulone mono-acetate, Hexahydro-Colupulone Mono-Acetate] : 99.28
CCC(=O)OC1=C(CCC(C)C)C(=O)C(CCC(C)C)(CCC(C)C)C(O)=C1C(=O)C(C)C [hexahydro-colupulone mono-propionate] : 98.87
CC(C)CCC1=C(O)C(C(=O)C(C)C)=C(O)C(CCC(C)C)(CCC(C)C)C1=O [hexahydro-colupulone, reference compound] : 90.11
